test system: Eimeria acervulina; experiment: In vivo anti-coccidial activity against Eimeria acervulina (chick 7-day coccidiosis model); assay type: functional
Would you kindly list ED95 for each of these compounds?

Inquiry: Identify the measured ED95 of "CCNCCCCCNc1cc(OC)cc2cccnc12" for Eimeria acervulina.
Reply text: >50 p.p.m. in feed

Inquiry: Identify the measured ED95 of "COc1cc(NCCCCCNCc2ccccc2)c2ncccc2c1" for Eimeria acervulina.
Reply text: >25 p.p.m. in feed

Inquiry: Identify the measured ED95 of "COc1cc(NCCCCCNC(C)C)c2ncccc2c1" for Eimeria acervulina.
Reply text: 12.5 p.p.m. in feed

Inquiry: Identify the measured ED95 of "COc1cc(NCCCCNC(C)C)c2ncccc2c1" for Eimeria acervulina.
Reply text: 6.25 p.p.m. in feed

Inquiry: Identify the measured ED95 of COc1cc(NCCCCCNC2CC[S+]([O-])CC2)c2ncccc2c1 (stereo unspecified) for Eimeria acervulina.
Reply text: >25 p.p.m. in feed

Inquiry: Identify the measured ED95 of "COc1cc(NCc2ccc(NC(C)C)cc2)c2ncccc2c1" for Eimeria acervulina.
Reply text: >12.5 p.p.m. in feed

###

Would you kindly list ED95 for each of these compounds?
tested on: Eimeria acervulina; test: In vivo anti-coccidial activity against Eimeria acervulina (chick 7-day coccidiosis model); format: functional

Inquiry: Using the record for "CCN(CC)CCC[C@H](C)Nc1cc(OC)cc2cccnc12" , report its ED95.
Reply text: >50 p.p.m. in feed

Inquiry: Using the record for "COc1cc(NCCCCCN)c2ncccc2c1" , report its ED95.
Reply text: 100 p.p.m. in feed

Inquiry: Using the record for "COc1cc(N[C@@H](C)CCCNC(C)C)c2ncccc2c1" , report its ED95.
Reply text: >50 p.p.m. in feed

Inquiry: Using the record for COc1cc(NCCCCCNC2CCCO2)c2ncccc2c1 (configuration not stated) , report its ED95.
Reply text: 12.5 p.p.m. in feed

Inquiry: Using the record for "COc1cc(NCCCCCNC2CCOCC2)c2ncccc2c1" , report its ED95.
Reply text: 12.5 p.p.m. in feed

Inquiry: Using the record for "COc1cc(NCCCCCNC2CCCC2)c2ncccc2c1" , report its ED95.
Reply text: >25 p.p.m. in feed

Inquiry: Using the record for N#CC(c1ccc(Cl)cc1)c1c(Cl)cc(-n2ncc(=O)[nH]c2=O)cc1Cl (configuration not stated) , report its ED95.
Reply text: 1 p.p.m. in feed

Inquiry: Using the record for "COc1cc(NCCCCCNC(C)(C)C)c2ncccc2c1" , report its ED95.
Reply text: >25 p.p.m. in feed

Inquiry: Using the record for "COc1cc(NCCCCCNC2CC2)c2ncccc2c1" , report its ED95.
Reply text: >12.5 p.p.m. in feed

Inquiry: Using the record for "COc1cc(NCCCNC(C)C)c2ncccc2c1" , report its ED95.
Reply text: >25 p.p.m. in feed

Inquiry: Using the record for "COc1cc(NCCCCCNC2CCSCC2)c2ncccc2c1" , report its ED95.
Reply text: >50 p.p.m. in feed

Inquiry: Using the record for "COc1cc(NCCNC(C)C)c2ncccc2c1" , report its ED95.
Reply text: >25 p.p.m. in feed
